Kindly supply the reported inhibition values for the records listed here.
# system: Aurora kinase B (Homo sapiens)
# measurement.description: Inhibition of Aurora B (unknown origin) at 0.2 uM pre-incubated for 10 mins before FAM-labeled peptide substrate addition by mobility shift assay relative to control
Answers are plain numbers, in %.

Some entries whose results are on file:
test.smiles: COc1cc2nccc(Oc3ccc(NC(=O)c4cnc(Cl)cc4Nc4ccc(F)c(Br)c4)cc3F)c2cc1OC
quantity: inhibition
numeric.value: 30.5

test.smiles: COc1cc2nccc(Oc3ccc(NC(=O)c4cnc(Cl)cc4Nc4ccc(Br)cc4F)cc3)c2cc1OC
quantity: inhibition
numeric.value: 31.6

test.smiles: COc1cc2nccc(Oc3ccc(NC(=O)c4cnc5ccc(Br)cc5c4Nc4ccc(F)c(Br)c4)cc3F)c2cc1OC
quantity: inhibition
numeric.value: 13.7

Note: attention shifts to another entry.
Q) Quote Aurora kinase B (Homo sapiens) inhibition for entry COc1cc2nccc(Oc3ccc(NC(=O)c4cnc(Cl)cc4Nc4cccc(F)c4)cc3)c2cc1OC .
A) 49.6

# credit: ChEMBL document CHEMBL4385642
